- System: PPARg:RXRa DBDmut IVT, anti-RXR (DBD mutation: RXRa K156A/R161A, NR concentration 270 nM, RXRa partner concentration 90 nM)
- Test method notes: PBM binding z-score (relative to random genomic background probes); higher = stronger binding; sequences stand for … in GC…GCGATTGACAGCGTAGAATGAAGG
Metric: PBM binding z-score
The response must contain the number and no unit.

Look up PBM binding z-score for this sequence: AGGATGAGGTTATACGTAGATCAGGGAAGAAAGT
0.241

Requested read-out: PBM binding z-score. Entry: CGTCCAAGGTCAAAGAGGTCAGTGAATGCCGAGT
3.99

Tell me the measured PBM binding z-score of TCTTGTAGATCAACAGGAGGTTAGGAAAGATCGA , please.
1.53

Dear colleague, I am looking for the recorded PBM binding z-score of the following sequence: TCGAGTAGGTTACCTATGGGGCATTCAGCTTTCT
2.71

Entry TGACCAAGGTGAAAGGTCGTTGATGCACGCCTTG has what PBM binding z-score?
2.01

Which PBM binding z-score is reported for this sequence? CGAACTAGGTTATCCAGGACAGTGAATACATTGA
6.42

###

- Tested on: RARg homodimer (NR concentration 270 nM)
- Test method notes: PBM binding z-score (relative to random genomic background probes); higher = stronger binding; sequences stand for … in GC…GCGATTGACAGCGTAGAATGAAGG
What PBM binding z-score was measured for each of the following?

Hello, I am looking for reported PBM binding z-score with RARg homodimer (NR concentration 270 nM) for CAAACTAGGTCACTGAGGTCAAAGTCCGTGCGTA . Could you help?
7.09

Entry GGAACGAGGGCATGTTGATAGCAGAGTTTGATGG , system RARg homodimer (NR concentration 270 nM): what PBM binding z-score was measured?
1.38

Record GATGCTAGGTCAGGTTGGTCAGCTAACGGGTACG : what is its PBM binding z-score with RARg homodimer (NR concentration 270 nM)?
3.92

What PBM binding z-score appears in the records for this sequence with RARg homodimer (NR concentration 270 nM)? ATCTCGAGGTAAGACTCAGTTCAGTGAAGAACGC
0.121

Can you look up PBM binding z-score on RARg homodimer (NR concentration 270 nM) for GCGACTGGGGCAAAGCAGGTTACCAAAAGGTTGG ?
0.527

Requested read-out PBM binding z-score, target or system RARg homodimer (NR concentration 270 nM), entry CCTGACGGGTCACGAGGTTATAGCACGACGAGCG
5.33

PBM binding z-score of ATCGAAAGGTCGTGAGGTTAGTATACAGAAAGGC on RARg homodimer (NR concentration 270 nM)?
4.09

Request: PBM binding z-score, test system RARg homodimer (NR concentration 270 nM), entry TCTATTAGTTGATTTGGGCAACCGAAACAGCGGA
0.0812

Tell me reported PBM binding z-score for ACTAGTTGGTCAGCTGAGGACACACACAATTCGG , tested with RARg homodimer (NR concentration 270 nM).
1.82

RARg homodimer (NR concentration 270 nM) / PBM binding z-score / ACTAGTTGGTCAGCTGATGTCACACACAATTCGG : value?
1.08

Return PBM binding z-score measured with RARg homodimer (NR concentration 270 nM) given this sequence: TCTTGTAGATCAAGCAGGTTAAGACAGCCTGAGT
-0.105

Find the measured PBM binding z-score: item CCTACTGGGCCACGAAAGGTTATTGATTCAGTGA , target or system RARg homodimer (NR concentration 270 nM).
1.08

Lab note: need PBM binding z-score with RARg homodimer (NR concentration 270 nM) for entry CGTCCAAGGACAGAGAGGTCAGTGAATGCCGAGT , please look it up.
3.98

Request: PBM binding z-score, test system RARg homodimer (NR concentration 270 nM), entry CCTATTAGTTGACCATAAGGGCAACCGTAGCTCG
1.25

Enter reported PBM binding z-score observed with RARg homodimer (NR concentration 270 nM) for TCGAGTAGGTTACCAATGGAGCATTCAGCTTTCT
0.258

Which measured PBM binding z-score belongs to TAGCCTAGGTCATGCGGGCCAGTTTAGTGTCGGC , tested on RARg homodimer (NR concentration 270 nM)?
4.73

Hi! What's the reported PBM binding z-score for ATCTCTAGGTAAAAGTTCAGTGCATCCCGAGGAT on RARg homodimer (NR concentration 270 nM)?
1.81

Find PBM binding z-score (RARg homodimer (NR concentration 270 nM)) for the entry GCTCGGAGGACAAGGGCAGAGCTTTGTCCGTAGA
0.628

Form field: PBM binding z-score recorded for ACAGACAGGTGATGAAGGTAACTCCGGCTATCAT with RARg homodimer (NR concentration 270 nM) (enter value)
0.355

Short answer please: PBM binding z-score, RARg homodimer (NR concentration 270 nM), entry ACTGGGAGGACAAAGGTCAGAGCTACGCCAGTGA
5.14

Notebook entry, RARg homodimer (NR concentration 270 nM) assay: PBM binding z-score of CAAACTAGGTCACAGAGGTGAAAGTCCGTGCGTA = ?
5.24

Return PBM binding z-score measured with RARg homodimer (NR concentration 270 nM) given this sequence: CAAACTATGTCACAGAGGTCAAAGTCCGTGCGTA
5.01

Lab request: please report PBM binding z-score under test system RARg homodimer (NR concentration 270 nM) for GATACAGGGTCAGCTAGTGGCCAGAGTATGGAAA
4.32

Hi! What's the reported PBM binding z-score for CGAATTAGGTCATCCAGGACAGTGAATACATTGA on RARg homodimer (NR concentration 270 nM)?
5.18

Test system RARg homodimer (NR concentration 270 nM); read-out PBM binding z-score; what value for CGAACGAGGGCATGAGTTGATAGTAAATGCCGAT ?
1.7

# get_value(readout= PBM binding z-score, system= RARg homodimer (NR concentration 270 nM)) for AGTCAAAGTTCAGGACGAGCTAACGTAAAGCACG
4.84

Requested read-out PBM binding z-score, target or system RARg homodimer (NR concentration 270 nM), entry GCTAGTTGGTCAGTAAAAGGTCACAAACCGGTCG
4.28

Any idea what PBM binding z-score came out for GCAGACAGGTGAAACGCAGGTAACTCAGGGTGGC on RARg homodimer (NR concentration 270 nM)?
0.0344

Find the measured PBM binding z-score: item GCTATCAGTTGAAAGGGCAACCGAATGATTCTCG , target or system RARg homodimer (NR concentration 270 nM).
1.28

So what PBM binding z-score did CCTGCTTGGTCATGGTCAGCTAATCTACAGTATG get with RARg homodimer (NR concentration 270 nM)?
0.774

// fetch RARg homodimer (NR concentration 270 nM) PBM binding z-score for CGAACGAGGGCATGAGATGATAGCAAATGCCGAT
1.64

Return PBM binding z-score measured with RARg homodimer (NR concentration 270 nM) given this sequence: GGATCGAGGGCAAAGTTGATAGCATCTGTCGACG
1.7

Notebook entry, RARg homodimer (NR concentration 270 nM) assay: PBM binding z-score of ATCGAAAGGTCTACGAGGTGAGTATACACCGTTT = ?
1.56

Which measured PBM binding z-score belongs to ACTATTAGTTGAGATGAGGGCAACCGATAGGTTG , tested on RARg homodimer (NR concentration 270 nM)?
0.979

Return PBM binding z-score measured with RARg homodimer (NR concentration 270 nM) given this sequence: TCTAGTTGGTCAAAGGTCACACAGTCGAAATGCG
6.38

Report PBM binding z-score for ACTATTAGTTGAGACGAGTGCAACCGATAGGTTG tested on RARg homodimer (NR concentration 270 nM).
0.277

// map TTACCAATGTGAAAGGTCGTTGATGCACGCCTTG to recorded PBM binding z-score (system: RARg homodimer (NR concentration 270 nM))
0.967

Provide the documented PBM binding z-score with RARg homodimer (NR concentration 270 nM) as the system for CATACAGGGTCAACTAGGCCAGAGTAGGGACGGC
5.42

State its PBM binding z-score on RARg homodimer (NR concentration 270 nM): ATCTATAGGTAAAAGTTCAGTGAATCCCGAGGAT
2.03

API: value(readout= PBM binding z-score, system= RARg homodimer (NR concentration 270 nM), query= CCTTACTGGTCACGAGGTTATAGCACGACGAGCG )
1.86

What PBM binding z-score appears in the records for this sequence with RARg homodimer (NR concentration 270 nM)? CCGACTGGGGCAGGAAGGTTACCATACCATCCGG
0.687

Give recorded PBM binding z-score with RARg homodimer (NR concentration 270 nM) for the following sequence: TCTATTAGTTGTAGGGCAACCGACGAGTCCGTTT
0.469

Hi! What's the reported PBM binding z-score for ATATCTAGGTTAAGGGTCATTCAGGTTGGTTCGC on RARg homodimer (NR concentration 270 nM)?
3.86

Recorded PBM binding z-score for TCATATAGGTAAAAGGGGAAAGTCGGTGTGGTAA with RARg homodimer (NR concentration 270 nM), please?
0.236

Item: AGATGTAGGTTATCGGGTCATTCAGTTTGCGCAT Test system: RARg homodimer (NR concentration 270 nM) Read-out: PBM binding z-score Value: ?
2.6

# returns recorded PBM binding z-score (system: RARg homodimer (NR concentration 270 nM)) for CCGACTGGGGCATACGGTTACCATAAGCCAGCCC
0.374

What PBM binding z-score appears in the records for this sequence with RARg homodimer (NR concentration 270 nM)? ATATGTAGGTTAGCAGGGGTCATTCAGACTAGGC
3.61

Observed PBM binding z-score on RARg homodimer (NR concentration 270 nM) for TATACAGGGTCAAAGGACAGAGTACGAATGTCGA , please.
5.03

Hi! What's the reported PBM binding z-score for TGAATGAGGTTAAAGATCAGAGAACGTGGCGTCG on RARg homodimer (NR concentration 270 nM)?
1.36

Provide value of PBM binding z-score for this record tested with RARg homodimer (NR concentration 270 nM): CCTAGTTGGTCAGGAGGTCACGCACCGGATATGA
4.98

Record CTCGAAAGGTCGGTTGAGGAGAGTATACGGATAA : what is its PBM binding z-score with RARg homodimer (NR concentration 270 nM)?
2.43
